Exercise: for every item that follows, state its recorded MIC.
Test system: A. baumannii ATCC 17978
Where a name gives a salt, the structure may show the parent alone.
Numbers only, in µg/mL.

Cc1cccc(C(CC(=O)NCCC2CCNCC2)c2cn(CC3CCCCC3)c3ccc(Br)cc23)c1.Cl (stereo not shown) [Compound 120]    64
Cc1cccc(-c2ccc3c(c2)c(C2CCCC(NCCCN)C2)cn3C2CCCCC2)c1 (stereo not shown) [Compound 381]    4
NC1CCC(NCCC(c2cccc(C(F)(F)F)c2)c2cn(CC3CCCCC3)c3ccccc23)CC1 (stereo not shown) [Compound 168, hydrochloride salt]    4
N#Cc1ccc2c(c1)c(C(CCNCCCN)c1cccc(OC(F)(F)F)c1)cn2C1CCCCC1 (stereo not shown) [Compound 372, dihydrochloride salt]    4
Cc1cccc(C(CCN2CCC(N)CC2)c2cn(CC3CCCCC3)c3ccccc23)c1 (stereo not shown) [Compound 216, hydrochloride salt]    8

In: Field request: MIC | item: NCCCNCCC(c1cccc(OC(F)(F)F)c1)c1cn(C2CCCCC2)c2ccccc12 (stereo not shown) [Compound 348]
Out: 4

---

Test system: E. faecium ATCC 700221
protocol notes: MIC, E. faecium ATCC 700221
Assay type: cell-based
condition details: Enterococcus faecium, ATCC700221; Table XIV A. Gram-positive bacteria; read-out: E. faecium ATCC 700221 MIC
measured metric: MIC (mg/L)
One number for each entry, in mg/L.

Sample records with MIC:
Cc1cccc(C(CCNC2CCCCC2)c2cn(CC3CCCCC3)c3ccccc23)c1.Cl (stereo not shown)    1
Cc1cccc(-c2ccc3c(c2)c(CCCNCC(O)CN)cn3C2CCCCC2)c1 (stereo not shown)    2
Cc1cccc(C(CC(=O)Nc2ccc(CN)cc2)c2cn(CC3CCCCC3)c3ccccc23)c1.Cl (stereo not shown)    4

Now take the following compound into account.
In: Field request: MIC | item: Cc1cccc(C(CCNCCCN)c2cn(C3CCCCC3)c3cc(Br)ccc23)c1.Cl.Cl (stereo not shown)
Out: 1

---

Observed MIC for Staphylococcus aureus (ATCC25923), reported per entry below.
One number for each entry, in µg/mL.

Sample records with MIC:
COc1cccc(C(CC(=O)NCCC2CCNCC2)c2cn(Cc3ccccc3)c3ccccc23)c1.Cl (stereo not shown)    68
Cc1cccc(C(CC(=O)NC2CCC(CN)CC2)c2cn(CC3CCCCC3)c3ccccc23)c1.Cl (stereo not shown)    17
Cc1cccc(C(CC(=O)NCCC2CCNCC2)c2cn(CC3CCCCC3)c3ccc(Br)cc23)c1.Cl (stereo not shown)    2
Cl.N[C@H]1CC[C@H](NC(=O)CCc2cn(CC3CCCCC3)c3ccc(-c4ccccc4OC(F)(F)F)cc23)CC1    5
Cl.N[C@H]1CC[C@H](NC(=O)CC(c2ccc(F)c(F)c2)c2cn(CC3CCCCC3)c3ccccc23)CC1 (stereo partly shown)    4

Hi there! I need MIC for each item below, if you can.
1. Cc1cccc(C(CCNC2CCCCC2)c2cn(CC3CCCCC3)c3ccccc23)c1.Cl (stereo not shown)
2. Cc1cccc(C(CC(=O)NC2CCNCC2)c2cn(CC3CCCCC3)c3ccccc23)c1.Cl (stereo not shown)

Out:
[2, 8]

---

Tested on: S. aureus USA300 MRSA BAA-1717
protocol notes: MIC, S. aureus USA300 MRSA BAA-1717
Assay type: cell-based
condition details: Staphylococcus aureus; Table XIV A. Gram-positive bacteria; read-out: S. aureus USA300 MRSA BAA-1717 MIC
Structures can show the parent of a compound that is named as a salt.
measured metric: MIC (µg/mL)
Numbers only, in µg/mL.

Cc1cccc(-c2ccc3c(c2)c(CCN[C@H]2CC[C@H](N)CC2)cn3CC2CCCCC2)c1 [Compound 225, hydrochloride salt]    2
NCCCNCCC(c1cccc(OC(F)(F)F)c1)c1cn(C2CCCCC2)c2ccccc12 (centres unmarked)    4

Hi there! I need MIC for each item below, if you can.
1. Cc1cccc(C(CCNCCCN)c2cn(C3CCCCC3)c3cc(Br)ccc23)c1.Cl.Cl (centres unmarked)
2. Cc1cccc(-c2ccc3c(c2)c(CCCNCC(O)CN)cn3C2CCCCC2)c1 (centres unmarked)
3. Cc1cccc(-c2ccc3c(c2)c(C2CCCC(NCCCN)C2)cn3C2CCCCC2)c1 (centres unmarked)
4. Cc1cccc(-c2ccc3c(c2)c(CCCNCCCN)cn3C2CCCCC2)c1.Cl.Cl
5. COc1ccccc1-c1ccc2c(c1)c(CCCN[C@H]1CC[C@H](N)CC1)cn2CC1CCCCC1 [Compound 237, hydrochloride salt]

Out:
[2, 2, 2, 2, 4]

In: API: value(readout=MIC, system=S. aureus USA300 MRSA BAA-1717) for record NC1CCC(NCCC(c2cccc(OC(F)(F)F)c2)c2cn(CC3CCCCC3)c3ccccc23)CC1 (centres unmarked) [Compound 173, hydrochloride salt]
Out: 2
